molecular target: human prostate specific membrane antigen (PSMA), full-length, on cells (human, UniProt Q04609 1-750); test: cell-based or functional assay
Sequence (Q04609 whole entry): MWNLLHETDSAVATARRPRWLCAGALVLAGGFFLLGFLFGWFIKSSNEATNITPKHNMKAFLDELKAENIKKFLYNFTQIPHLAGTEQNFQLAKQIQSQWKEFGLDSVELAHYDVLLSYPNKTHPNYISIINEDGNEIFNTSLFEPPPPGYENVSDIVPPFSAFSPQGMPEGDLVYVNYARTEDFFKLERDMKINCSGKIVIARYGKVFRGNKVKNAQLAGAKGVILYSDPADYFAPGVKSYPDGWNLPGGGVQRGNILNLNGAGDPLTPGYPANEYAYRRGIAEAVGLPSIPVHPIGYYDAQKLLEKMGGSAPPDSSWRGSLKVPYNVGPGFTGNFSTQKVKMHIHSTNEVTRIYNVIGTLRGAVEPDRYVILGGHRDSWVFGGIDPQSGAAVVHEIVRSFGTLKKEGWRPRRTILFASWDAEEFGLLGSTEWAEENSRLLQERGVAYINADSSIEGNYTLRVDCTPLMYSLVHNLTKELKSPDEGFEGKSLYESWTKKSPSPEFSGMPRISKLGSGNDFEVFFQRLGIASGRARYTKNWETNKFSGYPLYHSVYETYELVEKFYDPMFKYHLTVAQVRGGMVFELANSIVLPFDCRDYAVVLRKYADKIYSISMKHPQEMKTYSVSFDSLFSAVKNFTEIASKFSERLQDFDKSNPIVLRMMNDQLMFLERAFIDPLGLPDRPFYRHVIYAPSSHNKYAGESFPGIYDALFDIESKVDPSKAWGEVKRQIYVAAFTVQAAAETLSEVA
Let's look at some binders and their measured Mean Max % Cell kill, DU145 PSMA cells, 48 h.
Hi! Could you send only the number? It should be in %, unit omitted.

>  <binder>
HiPEG C-His6 val-cit-PAB-MMAE (VHH, HiPEG val-cit-PAB-MMAE attached via the C-terminal His6-tag, DAR 1) VHH: EVQLVESGGGVVQPGRSLRLSCAASGFPLISYGMHWVRQAPGKGLEWVAFMTYDGSNRYYADSVKGRFTISRDNSKNTLYLQMNSLRDEDTALYYCARDRIVGGRVPDAFDIWGQGTMVTVSS

>  <reported.result>
59

$$$$
>  <binder>
HiPEG A-2-B-His6 val-cit-PAB-MMAE (bispecific antibody, HiPEG val-cit-PAB-MMAE attached via the C-terminal His6-tag, DAR 1) EVQLVESGGGVVQPGRSLRLSCAASGFSFSGYGMHWVRQAPGKGLEWVAYISYDGSNKYYADSVKGRFTISRDNSKNTLYLQMNSLRAEDTAVYYCAKDPAWGLRLGESSSYDFDIWGQGTMVTVSSGGGGSGGGGSGGGGSGGGGSGGGGSGGGGSEVQLLESGGGLVQPGGSLRLSCAASGFSFSSYAMSWVRQAPGKGLEWVSSIGENDGTTDYADSVKGRFTISRDNSKSMLYLQMNSLRVEDTAVYYCVKDGVHWGQGTLVTVSSAAAHHHHHH

>  <reported.result>
78

$$$$

# context switch: different binder, same Mean Max % Cell kill, DU145 PSMA cells, 48 h
(Q) For the binder shown here, HiPEG B-2-A-His6 val-cit-PAB-MMAE (bispecific antibody, HiPEG val-cit-PAB-MMAE attached via the C-terminal His6-tag, DAR 1) EVQLLESGGGLVQPGGSLRLSCAASGFSFSSYAMSWVRQAPGKGLEWVSSIGENDGTTDYADSVKGRFTISRDNSKSMLYLQMNSLRVEDTAVYYCVKDGVHWGQGTLVTVSSGGGGSGGGGSGGGGSGGGGSGGGGSGGGGSEVQLVESGGGVVQPGRSLRLSCAASGFSFSGYGMHWVRQAPGKGLEWVAYISYDGSNKYYADSVKGRFTISRDNSKNTLYLQMNSLRAEDTAVYYCAKDPAWGLRLGESSSYDFDIWGQGTMVTVSS , give the reported Mean Max % Cell kill, DU145 PSMA cells, 48 h.
(A) 79
